Assay: Half life in in vitro pharmacokinetic/pharmacodynamic model at 1 g for every 12 hrs
Type: ADME
quantity name: half-life (h)
Write the answer as a number in h, unit excluded.

### Prompt Name the recorded half-life for "CN[C@H](CC(C)C)C(=O)N[C@H]1C(=O)N[C@@H](CC(N)=O)C(=O)N[C@H]2C(=O)N[C@H]3C(=O)N[C@H](C(=O)N[C@H](C(=O)O)c4cc(O)cc(O)c4-c4cc3ccc4O)[C@H](O)c3ccc(c(Cl)c3)Oc3cc2cc(c3O[C@@H]2O[C@H](CO)[C@@H](O)[C@H](O)[C@H]2O[C@H]2C[C@](C)(N)[C@H](O)[C@H](C)O2)Oc2ccc(cc2Cl)[C@H]1O" .
### Response 6.2

====

Test: AUC (0 to 24 hrs) in in vitro pharmacokinetic/pharmacodynamic model at 300 mg for every 8 hrs
quantity name: AUC at 24 h (ng·h/mL)
Write the answer as a number in ng·h/mL, unit excluded.

### Prompt Name the recorded AUC at 24 h for CO[C@H]1/C=C/O[C@@]2(C)Oc3c(C)c(O)c4c(O)c(c(/C=N/N5CCN(C)CC5)c(O)c4c3C2=O)NC(=O)/C(C)=C\C=C\[C@H](C)[C@H](O)[C@@H](C)[C@@H](O)[C@@H](C)[C@H](OC(C)=O)[C@@H]1C [RIFAMPIN] .
### Response 64400

====

Assay: AUC (0 to 24 hrs) in in vitro pharmacokinetic/pharmacodynamic model at 10 mg/kg for every 12 hrs
Assay type: ADME, organism-based
Set-up: time < 24 hr, dose 10 mg/kg
Conditions: in the assay text read “every 24 hrs” for “every 12 hrs”
quantity name: AUC at 24 h (µg·h/mL)
Write the answer as a number in µg·h/mL, unit excluded.

### Prompt Name the recorded AUC at 24 h for "CCCCCCCCCCNCCN[C@@]1(C)C[C@H](O[C@H]2[C@H](Oc3c4cc5cc3Oc3ccc(cc3Cl)[C@@H](O)[C@@H](NC(=O)[C@@H](CC(C)C)NC)C(=O)N[C@@H](CC(N)=O)C(=O)N[C@H]5C(=O)N[C@H]3C(=O)N[C@H](C(=O)N[C@H](C(=O)O)c5cc(O)c(CNCP(=O)(O)O)c(O)c5-c5cc3ccc5O)[C@H](O)c3ccc(c(Cl)c3)O4)O[C@H](CO)[C@@H](O)[C@@H]2O)O[C@@H](C)[C@H]1O" .
### Response 969

====

Assay: AUC (0 to 24 hrs) in in vitro pharmacokinetic/pharmacodynamic model at 1 g for every 12 hrs
Assay type: ADME
Parameters: dose 1 g, time < 24 hr
quantity name: AUC at 24 h (µg·h/mL)
Write the answer as a number in µg·h/mL, unit excluded.

### Prompt Name the recorded AUC at 24 h for "CN[C@H](CC(C)C)C(=O)N[C@H]1C(=O)N[C@@H](CC(N)=O)C(=O)N[C@H]2C(=O)N[C@H]3C(=O)N[C@H](C(=O)N[C@H](C(=O)O)c4cc(O)cc(O)c4-c4cc3ccc4O)[C@H](O)c3ccc(c(Cl)c3)Oc3cc2cc(c3O[C@@H]2O[C@H](CO)[C@@H](O)[C@H](O)[C@H]2O[C@H]2C[C@](C)(N)[C@H](O)[C@H](C)O2)Oc2ccc(cc2Cl)[C@H]1O" .
### Response 391
